Attribution: ChEMBL document CHEMBL1914416

Quick reference: Ratio of the listed items.
- targetUnderTest: ATP-dependent translocase ABCB1 (Homo sapiens)
- Sequence (P08183 whole entry): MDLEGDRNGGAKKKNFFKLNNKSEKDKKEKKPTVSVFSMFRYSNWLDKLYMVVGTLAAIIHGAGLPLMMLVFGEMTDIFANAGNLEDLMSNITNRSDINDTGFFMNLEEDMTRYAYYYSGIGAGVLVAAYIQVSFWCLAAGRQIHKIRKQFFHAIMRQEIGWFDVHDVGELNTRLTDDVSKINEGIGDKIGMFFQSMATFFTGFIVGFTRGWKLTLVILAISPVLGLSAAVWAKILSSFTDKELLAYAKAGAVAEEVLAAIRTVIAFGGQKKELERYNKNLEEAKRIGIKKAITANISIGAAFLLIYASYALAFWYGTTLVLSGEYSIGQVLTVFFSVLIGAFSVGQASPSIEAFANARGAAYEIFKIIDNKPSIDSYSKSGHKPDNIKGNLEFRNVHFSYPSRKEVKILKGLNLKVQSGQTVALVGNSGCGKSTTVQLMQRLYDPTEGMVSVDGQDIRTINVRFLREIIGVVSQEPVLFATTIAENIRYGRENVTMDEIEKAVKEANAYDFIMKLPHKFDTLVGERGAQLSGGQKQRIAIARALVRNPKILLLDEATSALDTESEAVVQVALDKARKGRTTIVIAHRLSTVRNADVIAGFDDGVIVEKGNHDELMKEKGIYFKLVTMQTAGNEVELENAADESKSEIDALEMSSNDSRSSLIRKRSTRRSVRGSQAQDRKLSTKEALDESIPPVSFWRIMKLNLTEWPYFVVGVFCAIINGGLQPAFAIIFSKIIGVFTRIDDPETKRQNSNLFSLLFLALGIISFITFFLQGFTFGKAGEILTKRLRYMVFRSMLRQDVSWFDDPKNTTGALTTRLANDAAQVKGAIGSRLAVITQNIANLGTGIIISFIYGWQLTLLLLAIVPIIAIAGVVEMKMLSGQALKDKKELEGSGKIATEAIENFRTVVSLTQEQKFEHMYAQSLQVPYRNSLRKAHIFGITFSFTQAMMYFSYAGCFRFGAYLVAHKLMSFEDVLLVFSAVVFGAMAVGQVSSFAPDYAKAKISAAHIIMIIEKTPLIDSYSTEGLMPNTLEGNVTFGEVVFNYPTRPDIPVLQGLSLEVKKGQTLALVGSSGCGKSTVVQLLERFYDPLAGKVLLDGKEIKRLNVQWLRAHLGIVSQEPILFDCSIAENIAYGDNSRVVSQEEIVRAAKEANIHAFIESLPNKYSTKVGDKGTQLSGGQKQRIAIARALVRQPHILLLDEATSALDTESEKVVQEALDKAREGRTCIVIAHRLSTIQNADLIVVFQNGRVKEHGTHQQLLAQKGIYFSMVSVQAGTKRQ
- methodNotes: Reversal of human MDR1-mediated rhodamine 123 uptake in mouse L5178Y cells assessed as fluorescence activity ratio at 10 mM by flow cytometry relative to non p-gp expressing parental cell line
- Assay type: cell-based
- conditionParameters: in the assay text read “10 µM” for “10 mM”
Answer with the value's number alone.

Example entries and their recorded answers appear below.
COc1ccc(-c2ccn(Cc3ccccc3)c(=O)c2C#N)cc1 1.35
COC(=O)c1c(Cc2ccccc2)ccn(Cc2ccccc2)c1=O 1.68

Next compound, please.
Bench note: what Ratio did `COC(=O)c1c(-c2ccc(OC)cc2)ccn(Cc2ccccc2)c1=O` show?
1.91
